Molecular target: human plasma DPP-IV (Homo sapiens)
Sequence (P27487 39-766 limits assumed): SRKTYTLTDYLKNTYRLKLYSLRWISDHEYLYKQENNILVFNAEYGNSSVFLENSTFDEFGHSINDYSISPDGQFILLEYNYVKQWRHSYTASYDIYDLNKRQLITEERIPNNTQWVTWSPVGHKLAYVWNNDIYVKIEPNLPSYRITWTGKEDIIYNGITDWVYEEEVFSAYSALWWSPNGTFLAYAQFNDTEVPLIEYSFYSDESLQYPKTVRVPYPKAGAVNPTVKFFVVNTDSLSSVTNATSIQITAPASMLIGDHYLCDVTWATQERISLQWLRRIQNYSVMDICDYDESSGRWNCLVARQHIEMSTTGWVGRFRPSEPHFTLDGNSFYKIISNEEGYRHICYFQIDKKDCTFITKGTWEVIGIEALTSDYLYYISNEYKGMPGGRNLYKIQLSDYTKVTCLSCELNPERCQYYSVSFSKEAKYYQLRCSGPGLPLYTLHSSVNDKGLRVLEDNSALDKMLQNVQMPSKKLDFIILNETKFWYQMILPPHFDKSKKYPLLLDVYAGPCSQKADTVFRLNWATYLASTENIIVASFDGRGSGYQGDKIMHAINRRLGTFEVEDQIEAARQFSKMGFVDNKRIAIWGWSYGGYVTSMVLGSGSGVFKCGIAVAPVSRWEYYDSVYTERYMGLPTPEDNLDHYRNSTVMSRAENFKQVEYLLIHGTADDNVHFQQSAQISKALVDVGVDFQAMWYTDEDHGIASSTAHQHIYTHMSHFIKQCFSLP
Assay: Inhibition of DPP-IV activity in human plasma
Details: substrate H-Glycine-Proline-AMC, pH 7.8, room temperature, 20 min
pIC50: −log10 of the molar value. Counter-ions that a name gives are not always drawn.
measured-property: pIC50

{"molecule": "CC(C)OCCCNCC(=O)N1CSC[C@H]1C#N [Ex. 2, monohydrochloride]", "data-value": 8.30}
{"molecule": "CC(C)NCC(=O)N1CSC[C@H]1C#N [Ex. 3, monohydrochloride]", "data-value": 8.52}
{"molecule": "N#C[C@@H]1CSCN1C(=O)CNC1CCCCC1 [Ex. 1, monohydrochloride]", "data-value": 8.00}

----------
Listed here are molecules together with their documented pIC50.
Target: DPP-IV (Caco-2 cell extract) (Homo sapiens, UniProt P27487)
Construct: adding 20 μg solubilized Caco-2 protein; endogenous in cells; nonidet-P40 extract
Sequence (P27487 whole entry): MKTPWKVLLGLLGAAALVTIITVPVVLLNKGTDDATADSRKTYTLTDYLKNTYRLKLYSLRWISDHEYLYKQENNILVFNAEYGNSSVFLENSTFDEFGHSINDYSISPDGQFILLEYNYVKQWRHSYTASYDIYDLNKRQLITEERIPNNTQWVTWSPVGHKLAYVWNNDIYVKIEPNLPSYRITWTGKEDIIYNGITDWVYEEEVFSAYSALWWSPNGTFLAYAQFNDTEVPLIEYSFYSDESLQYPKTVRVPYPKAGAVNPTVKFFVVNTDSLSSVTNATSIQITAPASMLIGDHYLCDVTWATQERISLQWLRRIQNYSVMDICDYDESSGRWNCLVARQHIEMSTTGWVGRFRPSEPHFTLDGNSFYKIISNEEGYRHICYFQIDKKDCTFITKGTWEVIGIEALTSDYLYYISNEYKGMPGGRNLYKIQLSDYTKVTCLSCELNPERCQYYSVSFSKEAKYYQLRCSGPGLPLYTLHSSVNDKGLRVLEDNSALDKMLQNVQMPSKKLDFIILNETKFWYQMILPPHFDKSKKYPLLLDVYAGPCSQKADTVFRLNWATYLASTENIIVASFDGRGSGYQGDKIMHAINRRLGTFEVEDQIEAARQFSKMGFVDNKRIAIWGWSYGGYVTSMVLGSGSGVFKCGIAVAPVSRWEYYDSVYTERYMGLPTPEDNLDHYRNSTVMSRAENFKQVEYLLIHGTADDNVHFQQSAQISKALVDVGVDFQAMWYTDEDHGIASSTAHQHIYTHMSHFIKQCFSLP
Assay: Caco-2 DPP-IV Assay (inhibition of DPP-IV activity from human colonic carcinoma cell extracts)
Settings: substrate H-Alanine-Proline-pNA, pH 7.4, room temperature, 10 minutes
pIC50: −log10 of the molar value. Counter-ions that a name gives are not always drawn.
measured-property: pIC50

{"molecule": "N#C[C@@H]1CSCN1C(=O)CNC1CCCCC1 [Ex. 1, monohydrochloride]", "measured-property": "pIC50", "data-value": 8.15}
{"molecule": "CC(C)OCCCNCC(=O)N1CSC[C@H]1C#N [Ex. 2, monohydrochloride]", "measured-property": "pIC50", "data-value": 8.15}
{"molecule": "CC(C)NCC(=O)N1CSC[C@H]1C#N [Ex. 3, monohydrochloride]", "measured-property": "pIC50", "data-value": 8.22}

----------
Target: rat plasma DPP-IV (Rattus norvegicus)
Sequence (P14740 37-767 limits assumed): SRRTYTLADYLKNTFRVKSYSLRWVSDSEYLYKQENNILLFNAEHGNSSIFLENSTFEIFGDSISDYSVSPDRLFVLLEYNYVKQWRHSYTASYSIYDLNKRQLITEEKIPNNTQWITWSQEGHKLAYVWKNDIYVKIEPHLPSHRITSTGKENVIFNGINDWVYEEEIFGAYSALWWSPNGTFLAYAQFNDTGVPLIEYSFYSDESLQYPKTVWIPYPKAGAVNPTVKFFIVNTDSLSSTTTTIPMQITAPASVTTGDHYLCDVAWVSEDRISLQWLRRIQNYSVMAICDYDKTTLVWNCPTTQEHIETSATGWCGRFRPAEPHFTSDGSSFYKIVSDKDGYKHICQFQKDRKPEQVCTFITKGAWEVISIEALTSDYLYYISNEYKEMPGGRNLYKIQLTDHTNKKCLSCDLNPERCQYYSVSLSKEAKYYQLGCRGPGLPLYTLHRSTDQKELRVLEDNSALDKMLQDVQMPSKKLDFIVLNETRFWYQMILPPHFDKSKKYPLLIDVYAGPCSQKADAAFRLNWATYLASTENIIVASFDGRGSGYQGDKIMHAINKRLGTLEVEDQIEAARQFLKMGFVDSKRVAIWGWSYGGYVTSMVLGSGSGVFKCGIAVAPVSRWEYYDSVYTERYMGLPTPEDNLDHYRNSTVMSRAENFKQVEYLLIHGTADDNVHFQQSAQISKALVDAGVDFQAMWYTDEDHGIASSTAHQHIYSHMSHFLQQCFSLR
Assay: Inhibition of DPP-IV activity in rat plasma
Details: substrate H-Glycine-Proline-AMC, pH 7.8, room temperature, 20 min
Where a name gives a salt, the structure may show the parent alone.
measured-property: IC50 (nM)

{"molecule": "CC(C)NCC(=O)N1CSC[C@H]1C#N [Ex. 3, monohydrochloride]", "target": "rat plasma DPP-IV (Rattus norvegicus)", "unit-annotation": "nM", "data-value": 3}
{"molecule": "CC(C)OCCCNCC(=O)N1CSC[C@H]1C#N [Ex. 2, monohydrochloride]", "target": "rat plasma DPP-IV (Rattus norvegicus)", "unit-annotation": "nM", "data-value": 1}
{"molecule": "N#C[C@@H]1CSCN1C(=O)CNC1CCCCC1 [Ex. 1, monohydrochloride]", "target": "rat plasma DPP-IV (Rattus norvegicus)", "unit-annotation": "nM", "data-value": 10}

The origin of these recorded values is patent US6110949A.
